Molecular target: AXL kinase (Homo sapiens)
Construct: purchased Carna 08-107
Sequence (P30530 473-894 limits assumed): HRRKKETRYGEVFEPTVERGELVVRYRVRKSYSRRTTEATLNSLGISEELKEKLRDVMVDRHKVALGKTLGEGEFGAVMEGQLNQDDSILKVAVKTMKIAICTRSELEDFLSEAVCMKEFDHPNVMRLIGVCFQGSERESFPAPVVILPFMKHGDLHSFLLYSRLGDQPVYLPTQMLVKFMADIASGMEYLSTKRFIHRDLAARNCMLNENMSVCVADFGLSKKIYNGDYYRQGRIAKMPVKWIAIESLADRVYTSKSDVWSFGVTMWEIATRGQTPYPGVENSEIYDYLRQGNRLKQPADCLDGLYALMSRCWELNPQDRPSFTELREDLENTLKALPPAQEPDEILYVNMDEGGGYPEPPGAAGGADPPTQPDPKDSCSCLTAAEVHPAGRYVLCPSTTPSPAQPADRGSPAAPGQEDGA
Test: Inhibitory activity of compound against AXL kinase (HTRF KinEASE)
Assay type: biochemical
Conditions: AXL enzyme (Carna, 08-107), ATP 15 μM; "<" means below detection limit of the test
Please provide measured IC50 for the entries that follow.

In the examples that follow, each entry is paired with its recorded IC50.
Exam item: Reported IC50, compound `O=C(c1ccccc1Nc1nc(Nc2ccc3c(c2)CC[C@@H](N2CCCC2)CC3)ncc1Cl)N1CCCC1` : ____
Marked response: < 0.11 nM

Exam item: Also need `O=S(=O)(NC1CC1)c1ccccc1Nc1nc(Nc2ccc3c(c2)CC[C@@H](N2CCCC2)CC3)ncc1Cl` , thanks.
Marked response: < 0.11 nM

Next item in the queue.
Exam item: Reported IC50, compound `[2H]C([2H])([2H])P(=O)(c1ccccc1Nc1nc(Nc2ccc3c(c2)CC[C@@H](N2CCCC2)CC3)ncc1Cl)C([2H])([2H])[2H]` : ____
Marked response: 2.04 nM

###

Please provide measured IC50 for the entries that follow.
target: AXL kinase (Homo sapiens, UniProt P30530); construct: purchased Carna 08-107; assay: Inhibitory activity of compound against AXL kinase (HTRF KinEASE); format: biochemical; conditions: AXL enzyme (Carna, 08-107), ATP 15 μM; "<" means below detection limit of the test
One number for each entry, in nM.

In the examples that follow, each entry is paired with its recorded IC50.
Exam item: Reported IC50, compound CNC(=O)c1cc(Cl)ccc1Nc1nc(Nc2ccc3c(c2)CC[C@@H](N2CCCC2)CC3)ncc1Cl [Example 36] : ____
Marked response: 0.36

Exam item: Also need CP(C)(=O)c1cc(OC2CC2)ccc1Nc1nc(Nc2ccc3c(c2)CC[C@@H](N2CCCC2)CC3)ncc1Cl [Example 128] , thanks.
Marked response: 1.82

Exam item: Also need CNC(=O)c1c(Nc2nc(Nc3ccc4c(c3)CC[C@@H](N3CCCC3)CC4)ncc2Cl)ccnc1OC [Example 44] , thanks.
Marked response: 1.47

Exam item: Also need CS(=O)(=O)c1ccccc1Nc1nc(Nc2ccc3c(c2)CC[C@@H](N2CCCC2)CC3)ncc1Cl [Example 23] , thanks.
Marked response: 1.38

Exam item: Also need O=S(=O)(c1cccc(Nc2nc(Nc3ccc4c(c3)CC[C@@H](N3CCCC3)CC4)ncc2Cl)c1)N1CCCC1 [Example 5] , thanks.
Marked response: 20.7

Exam item: Also need CNC(=O)c1cnccc1Nc1nc(Nc2ccc3c(c2)CC[C@@H](N2CCCC2)CC3)ncc1Cl [Example 20] , thanks.
Marked response: 1.93

Parameters: items (list). Returns: IC50 for each item.
1. COCc1ccc(Nc2nc(Nc3ccc4c(c3)CC[C@@H](N3CCCC3)CC4)ncc2Cl)c(P(C)(C)=O)c1 [Example 115]
2. O=C(NC1CCOC1)c1ccccc1Nc1nc(Nc2ccc3c(c2)CC[C@@H](N2CCCC2)CC3)ncc1Cl (stereo partly drawn) [Example 39]
3. CP(C)(=O)c1cc(CO)ccc1Nc1nc(Nc2ccc3c(c2)CC[C@@H](N2CCCC2)CC3)ncc1Cl [Example 141]

Marked response:
4.89
2.59
2.43

Parameters: items (list). Returns: IC50 for each item.
1. COc1ccc(Nc2nc(Nc3ccc4c(c3)CC[C@@H](N3CCCC3)CC4)ncc2Cl)c(P(C)(C)=O)c1 [Example 55]
2. N#CCc1cccc(Nc2nc(Nc3ccc4c(c3)CC[C@@H](N3CCCC3)CC4)ncc2Cl)c1 [Example 11]

Marked response:
1: 3.14; 2: 8.18

###

molecular target: AXL kinase (Homo sapiens, UniProt P30530); construct: purchased Carna 08-107; experiment: Inhibitory activity of compound against AXL kinase (HTRF KinEASE); format: biochemical; conditions: AXL enzyme (Carna, 08-107), ATP 15 μM; "<" means below detection limit of the test
IC50 strictly under 0.8 nM means 1; at 0.8 nM or over means 0.

Use the examples below as a reference point.
Exam item: Please state whether IC50 is below 0.8 nM for NC(=O)c1ccccc1Nc1nc(Nc2ccc3c(c2)CC[C@@H](N2CCCC2)CC3)ncc1Cl [Example 13]
Marked response: 1

Exam item: Also need CNC(=O)c1cc(O)ccc1Nc1nc(Nc2ccc3c(c2)CC[C@@H](N2CCCC2)CC3)ncc1Cl [Example 45] , thanks.
Marked response: 1

Exam item: Also need CP(C)(=O)c1cc(Br)ccc1Nc1nc(Nc2ccc3c(c2)CC[C@@H](N2CCCC2)CC3)ncc1Cl [Example 110] , thanks.
Marked response: 0

New cases:
Exam item: Please state whether IC50 is below 0.8 nM for Cc1ccc(Nc2nc(Nc3ccc4c(c3)CC[C@@H](N3CCCC3)CC4)ncc2Cl)c(P(C)(C)=O)c1 [Example 53]
Marked response: 0

Exam item: Also need COc1c(F)ccc(Nc2nc(Nc3ccc4c(c3)CC[C@@H](N3CCCC3)CC4)ncc2Cl)c1P(C)(C)=O [Example 134] , thanks.
Marked response: 0

Exam item: Also need CNC(=O)c1cc(C(F)(F)F)ccc1Nc1nc(Nc2ccc3c(c2)CC[C@@H](N2CCCC2)CC3)ncc1Cl [Example 35] , thanks.
Marked response: 0

Exam item: Also need Clc1cnc(Nc2ccc3c(c2)CC[C@@H](N2CCCC2)CC3)nc1Nc1ccccc1CN1CCOCC1 [Example 40] , thanks.
Marked response: 1

FYI, the data here is from patent US20230227484A1.
